Catalogue of IC50 values
system_name: Axl (Homo sapiens (Human), UniProt P30530)
Sequence (P30530 26-894): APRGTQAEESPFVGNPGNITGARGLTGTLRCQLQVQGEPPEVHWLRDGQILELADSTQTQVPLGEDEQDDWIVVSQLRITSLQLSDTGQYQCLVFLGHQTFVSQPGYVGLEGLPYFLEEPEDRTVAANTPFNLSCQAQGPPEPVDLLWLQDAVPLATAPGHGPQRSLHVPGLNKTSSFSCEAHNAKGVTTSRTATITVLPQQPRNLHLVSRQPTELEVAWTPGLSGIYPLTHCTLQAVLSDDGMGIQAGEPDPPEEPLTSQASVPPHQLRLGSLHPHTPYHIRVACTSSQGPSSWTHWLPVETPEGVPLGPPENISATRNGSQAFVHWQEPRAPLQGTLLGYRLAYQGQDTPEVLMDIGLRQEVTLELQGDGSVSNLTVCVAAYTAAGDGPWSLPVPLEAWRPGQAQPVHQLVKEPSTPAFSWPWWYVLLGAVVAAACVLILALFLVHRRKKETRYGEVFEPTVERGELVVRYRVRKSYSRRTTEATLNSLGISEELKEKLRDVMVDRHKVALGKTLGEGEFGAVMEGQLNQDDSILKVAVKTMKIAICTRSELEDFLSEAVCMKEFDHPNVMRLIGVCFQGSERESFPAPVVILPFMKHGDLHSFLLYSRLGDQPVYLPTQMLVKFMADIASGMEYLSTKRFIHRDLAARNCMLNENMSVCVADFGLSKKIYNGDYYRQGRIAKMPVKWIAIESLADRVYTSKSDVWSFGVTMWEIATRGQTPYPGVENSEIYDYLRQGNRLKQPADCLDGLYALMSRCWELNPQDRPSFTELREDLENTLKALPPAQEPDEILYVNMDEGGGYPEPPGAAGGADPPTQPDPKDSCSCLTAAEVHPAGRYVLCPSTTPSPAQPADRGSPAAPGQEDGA
run_description: Phospho-Akt in-cell Western assay (Axl-antibody cross-linking stimulation)
Format: cell-based
condition_context: inhibition of Axl activity, Hela cells, phospho-Akt readout; Table 1, formula (Ia1)

Nc1nc(Nc2ccc(OCCN3CCCC3)cc2)nn1-c1cccc(Cl)n1    1 to 10 µM
Cn1c(-n2nc(Nc3ccc(OCCN4CCCC4)cc3)nc2N)nc2ccccc21    > 20 µM
CC1CCCN1CCOc1ccc(Nc2nc(N)n(-c3ccccc3F)n2)cc1 (stereo not drawn)    > 20 µM
COc1cc2nc(Cl)nc(-n3nc(Nc4ccc(OCCN5CCCC5)cc4)nc3N)c2cc1OC    < 1 µM

Briefly, IC50 measured for "Nc1nc(Nc2ccc(OCCN3CCCC3)cc2)nn1-c1nccc2ccccc12" : < 1 µM

Briefly, IC50 measured for "Nc1nc(Nc2ccc(OCCN3CCCCC3)cc2)nn1-c1ccnc(N2CCOCC2)c1" : > 20 µM

Briefly, IC50 measured for CC1CCCN1CCOc1ccc(Nc2nc(N)n(-c3nc4ccccc4n3C)n2)cc1 (stereo not drawn) : > 20 µM

Briefly, IC50 measured for "Nc1nc(Nc2ccc(OCCN3CCCC3)c(F)c2)nn1-c1ccccn1" : < 1 µM

Briefly, IC50 measured for "CNc1nc(Nc2ccc(OCCN3CCCC3)cc2)nn1-c1ccccn1" : > 20 µM
